# assay-text: Bidirectional transport across PTECs monolayers in conventional 2D Transwell
# Type: in vitro ADME, human
# condition-notes: human, Inhibitor (-); Donor3; 1.5 hour incubation; read-out: Papp Apical to Basal
measured-parameter: Papp A→B at 1.5 h, 1 µM
Param answer (str): number followed by unit.

### Prompt Supply reported Papp A→B at 1.5 h, 1 µM belonging to this compound: CN1CC[C@]23c4c5ccc(O)c4O[C@H]2[C@@H](O[C@@H]2O[C@H](C(=O)O)[C@@H](O)[C@H](O)[C@H]2O)C=C[C@H]3[C@H]1C5 [M6G, morphine-6-glucuronide]
### Response 40.1 ×10⁻⁶ cm/s

====

# assay-text: Transport of morphine and M6G in the vascularized proximal tubule MPS (VPT-MPS)
# Assay type: in vitro ADME, human
# condition-notes: human, with probenecid (1 mM) and tetraethylammonium (1 mM), PBPK model parameter; experimentally determined using VPT-MPS; read-out: Permeability
measured-parameter: Papp at 24 h, 1 µM (×10⁻⁶ cm/s)
Numeric only. Scale: ×10⁻⁶ cm/s

### Prompt Specify measured Papp at 24 h, 1 µM for CN1CC[C@]23c4c5ccc(O)c4O[C@H]2[C@@H](O[C@@H]2O[C@H](C(=O)O)[C@@H](O)[C@H](O)[C@H]2O)C=C[C@H]3[C@H]1C5 [M6G, morphine-6-glucuronide] .
### Response 23.8

====

# Test system: PTECs monolayers
# assay-text: Bidirectional transport across PTECs monolayers in conventional 2D Transwell
# Type: in vitro ADME, human
# condition-notes: Inhibitor (-); Donor3; 1.5 hour incubation; read-out: Papp Apical to Basal
measured-parameter: Papp A→B (×10⁻⁶ cm/s)
Your answer is read as ×10⁻⁶ cm/s, so omit the unit and give the number.

### Prompt Please indicate recorded Papp A→B of Nc1ccc(C(=O)NCC(=O)O)cc1 [[^3H] PAH, para-aminohippuric acid, reference compound] measured with PTECs monolayers.
### Response 31.7

Provenance of the data: paper PMC8560754
